Measured target: UniProtKB Q8TDX7
Sequence (Q8TDX7 whole entry, looked up): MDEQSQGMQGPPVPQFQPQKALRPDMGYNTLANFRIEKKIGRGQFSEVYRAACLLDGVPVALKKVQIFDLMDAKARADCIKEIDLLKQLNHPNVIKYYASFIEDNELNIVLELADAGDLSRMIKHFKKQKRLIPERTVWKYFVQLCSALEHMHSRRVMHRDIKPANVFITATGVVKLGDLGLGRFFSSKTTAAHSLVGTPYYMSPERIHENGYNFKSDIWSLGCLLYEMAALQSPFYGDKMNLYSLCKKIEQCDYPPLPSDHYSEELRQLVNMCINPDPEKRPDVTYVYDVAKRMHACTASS
Assay overview: KINOMEscan competition binding
Condition set: compound 10.0 µM
So I've got a bunch of compounds here, and I need their kinase still bound, per cent of control values.
Answers are plain numbers, in %.

These solved cases illustrate the format of a correct answer.
GET /values?readout=kinase still bound, per cent of control&item= "COc1cc2ncnc(Nc3cccc(Cl)c3)c2cc1OC" 88

Try "COc1ccc(N(C(=O)Oc2cc(C(=O)Nc3cccc(C(F)(F)F)c3)ccc2C)c2ccnc(Nc3ccc(N4CCN(C)CC4)cc3)n2)c(OC)c1" next. 100

Next compound: "Cc1cn(-c2cc(C(=O)Nc3ccc(C)c(NC(=O)c4ccno4)c3)cc(C(F)(F)F)c2)cn1" 100

Next up: CC1=C(C(=O)Nc2cc3cn[nH]c3cc2F)C(c2ccc(C(F)(F)F)cc2)CC(=O)N1 (centres undefined) 78

Try the compound "CCc1nc(-c2cccc(C)c2)c(-c2ccnc(NC(=O)c3ccccc3)c2)s1" 100

"N#C/C(=C1/Nc2ccccc2S1)c1ccnc(NCCc2cccnc2)n1" ? 84

Now give it for COc1cc(C)c(Sc2cnc(NC(=O)c3ccc(CNC(C)C(C)C)cc3)s2)cc1C(=O)N1CCN(C(C)=O)CC1 (centres undefined) too. 14

// same read-out, input: "C=CC(=O)Nc1ccc(C(=O)c2sc(Nc3ccc(N4CCN(C)CC4)cc3OC)nc2N)cc1" 100

Please turn your attention to the following entry.
Which value of kinase still bound, per cent of control has been reported for "O=c1[nH]c2ccccc2n1C1CCN(Cc2ccc(-c3nc4cc5[nH]cnc5cc4nc3-c3ccccc3)cc2)CC1" in the records? 82
